Tested on: HEK-293T
Assay: Multiplex assay against HEK293T
Format: toxicity, cell-based
Conditions: human, 24 h, 10 µM, compound concentration 10 uM, replicate 2
Test Readout: Population Pyknosed Nuclei (%)
Answers are plain numbers, in %.

# example entries with known answers
Cc1cccc(NC(=O)CN2CCC(c3ccccn3)CC2)c1.Cl.Cl: 13
Cc1noc(-c2ccc(-c3ccc(CC(=O)O)cc3)cc2)c1NC(=O)O[C@H](C)c1ccccc1Cl: 15
CC(C)(C)c1cc(NC(=O)Nc2ccc(-c3cn4c(n3)sc3cc(OCCN5CCOCC5)ccc34)cc2)no1: 11

We now examine a further molecule.
State the measured Population Pyknosed Nuclei (%) (HEK-293T) of C[C@H](N)COC(=O)[C@@H](CCCCN)NC(=O)Cc1c(-c2ccc3ccccc3c2)[nH]c2c1ccc1ccccc12 10

====

Test system: U2OS
Assay: Multiplex assay against U2OS
Assay type: toxicity, cell-based
Details: human, 24 h, 10 µM, compound concentration 10 uM, replicate 2
Consider the following compounds; for each one, report its Total Cell Count.
Answers are plain numbers.

COc1cccc2c1c(NS(=O)(=O)c1ccc(Cl)s1)nn2Cc1cccc(CNC(=O)C(C)(C)O)c1: 167
CCCCC1=NC2(CCCC2)C(=O)N1Cc1ccc(-c2ccccc2-c2nnn[nH]2)cc1: 135

For each of the items listed, what is its Total Cell Count?
1. CCc1cc2cc(NS(=O)(=O)c3ccc(C#N)cc3)ccc2n(CC)c1=O
2. COC[C@@H](c1ccc(C(F)(F)F)cc1)N1CCN(C2(C)CCN(C(=O)c3c(C)ncnc3C)CC2)C[C@@H]1C.O=C(O)/C=C\C(=O)O [VICRIVIROC MALEATE]
3. CC(/C=C1\SC(=S)N(CCCC(=O)Nc2ccc(C(=O)O)c(O)c2)C1=O)=C\c1ccccc1
4. Cl.N=C(N)NC(=O)Cc1c(Cl)cccc1Cl [GUANFACINE HYDROCHLORIDE]
5. CC[C@@H](C)Nc1nc(C)nc2c(-c3ccc(OC)nc3C)c(C)nn12

159
99
111
160
159

For each of the items listed, what is its Total Cell Count?
1. O=C(NCCN1CCC(n2c(=O)[nH]c3cc(Cl)ccc32)CC1)c1ccc(F)cc1 [HALOPEMIDE]
2. CC(=O)Nc1cccc2c1c(Sc1ccc(Cl)cc1)c(C)n2CC(=O)O

1: 159; 2: 125

====

Test system: Fibroblast
Test: Multiplex assay against human fibroblast
Format: toxicity, cell-based
Conditions: 12 h, 10 µM, compound concentration 10 uM, replicate 2
Given measured Population Healthy Nuclei (%), output rule met if it is greater than or equal to 40% and rule not met if not.

Study these solved cases before continuing.
CCc1cc2cc(NS(=O)(=O)c3ccc(C#N)cc3)ccc2n(CC)c1=O: rule met
CCCOc1ccc2[nH]cc(C3=CCNCC3)c2n1.Cl: rule met
N#Cc1cc(F)cc(-c2nc(-c3ccc(F)cn3)no2)c1: rule not met

Turning now to a further compound:
Test whether the compound Cc1c(CC(=O)O)c2cccnc2n1Cc1ccc(S(C)(=O)=O)cc1C(F)(F)F records Population Healthy Nuclei (%) of 40% or higher. rule met

====

Consider the following compounds; for each one, report its Population Hoechst High Intensity Objects (%).
System: Fibroblast
Experiment: Multiplex assay against human fibroblast
Format: toxicity, cell-based
Conditions: 48 h, 10 µM, compound concentration 10 uM, replicate 1
Answers are plain numbers, in %.

CC(/C=C1\SC(=S)N(CCCC(=O)Nc2ccc(C(=O)O)c(O)c2)C1=O)=C\c1ccccc1: 0
C[C@H](N)COC(=O)[C@@H](CCCCN)NC(=O)Cc1c(-c2ccc3ccccc3c2)[nH]c2c1ccc1ccccc12: 9
CCc1cc2cc(NS(=O)(=O)c3ccc(C#N)cc3)ccc2n(CC)c1=O: 1
O=C(NCCN1CCC(n2c(=O)[nH]c3cc(Cl)ccc32)CC1)c1ccc(F)cc1 [HALOPEMIDE]: 10
COc1cccc2c1c(NS(=O)(=O)c1ccc(Cl)s1)nn2Cc1cccc(CNC(=O)C(C)(C)O)c1: 5
Cc1c(CC(=O)O)c2cccnc2n1Cc1ccc(S(C)(=O)=O)cc1C(F)(F)F [FEVIPIPRANT]: 2

For each of the items listed, what is its Population Hoechst High Intensity Objects (%)?
1. CCCCCC(O)/C=C/[C@H]1C(=O)CC(O)C1C/C=C\CCCC(=O)O (stereo partly drawn)
2. CC(C)c1noc(N2CCC(COc3ccc(-c4ccc(S(C)(=O)=O)cc4)nc3)CC2)n1 [GSK-1292263]
3. O=C(CCCc1ccccc1)Nc1nc2ccccc2c(=O)s1
4. CN[C@@H](C)C(=O)N[C@H](C(=O)N1CCC[C@H]1C(=O)Nc1snnc1-c1ccccc1)C1CCCCC1 [GDC-0152]
5. COC[C@@H](c1ccc(C(F)(F)F)cc1)N1CCN(C2(C)CCN(C(=O)c3c(C)ncnc3C)CC2)C[C@@H]1C.O=C(O)/C=C\C(=O)O [VICRIVIROC MALEATE]
6. Cc1cccc(NC(=O)CN2CCC(c3ccccn3)CC2)c1.Cl.Cl

1: 4; 2: 2; 3: 2; 4: 6; 5: 14; 6: 7

====

Test system: U2OS
Experiment: Multiplex assay against U2OS
Type: toxicity, cell-based
Settings: human, 24 h, 1 µM, compound concentration 1 uM, replicate 1
Consider the following compounds; for each one, report its Population Hoechst High Intensity Objects (%).
Give bare numbers, in %.

# example entries with known answers
Cc1c(CC(=O)O)c2cccnc2n1Cc1ccc(S(C)(=O)=O)cc1C(F)(F)F [FEVIPIPRANT]: 2
N#Cc1c(Oc2cccc(OS(=O)(=O)CCCC(F)(F)F)c2)cccc1C(F)(F)F: 2
Br.CS(=O)(=O)Nc1c(O)ccc2c1CCCC2C1=NCCN1 (stereo not drawn): 2
CN[C@@H](C)C(=O)N[C@H](C(=O)N1CCC[C@H]1C(=O)Nc1snnc1-c1ccccc1)C1CCCCC1 [GDC-0152]: 5
CCCCC(=O)N(Cc1ccc(-c2ccccc2-c2nnn[nH]2)cc1)[C@H](C(=O)O)C(C)C: 2
Cc1onc(-c2ccccc2Cl)c1C(=O)N(C)c1ccc(Cl)cc1: 0
CC(C)c1noc(N2CCC(COc3ccc(-c4ccc(S(C)(=O)=O)cc4)nc3)CC2)n1 [GSK-1292263]: 1

We now examine a further compound.
State the measured Population Hoechst High Intensity Objects (%) (U2OS) of Cc1sc2c(c1C)C(c1ccc(Cl)cc1)=N[C@@H](CC(=O)NCCCCCCCCNC(=O)COc1cccc3c1C(=O)N(C1CCC(=O)NC1=O)C3=O)c1nnc(C)n1-2 (stereo partly drawn) 11

====

Test system: U2OS
Assay: Multiplex assay against U2OS
Type: toxicity, cell-based
Conditions: human, 24 h, 1 µM, compound concentration 1 uM, replicate 1
Consider the following molecules; for each one, report its Population Normal (%).
One number for each entry, in %.

Cc1cnc(-c2cc(N3CCN(C(=O)CCS(C)(=O)=O)CC3)ncc2Cl)c(C)c1: 97
COc1cccc2c1c(NS(=O)(=O)c1ccc(Cl)s1)nn2Cc1cccc(CNC(=O)C(C)(C)O)c1: 98
CC(=O)Nc1cccc2c1c(Sc1ccc(Cl)cc1)c(C)n2CC(=O)O [AZD1981]: 97

For each of the items listed, what is its Population Normal (%)?
1. O=C(CCCc1ccccc1)Nc1nc2ccccc2c(=O)s1
2. CCc1cc2cc(NS(=O)(=O)c3ccc(C#N)cc3)ccc2n(CC)c1=O
3. Cc1noc(-c2ccc(-c3ccc(CC(=O)O)cc3)cc2)c1NC(=O)O[C@H](C)c1ccccc1Cl
4. C[C@H](N)COC(=O)[C@@H](CCCCN)NC(=O)Cc1c(-c2ccc3ccccc3c2)[nH]c2c1ccc1ccccc12
5. CN1CCN(c2cc(-c3ccccc3)nc(N)n2)CC1

98
97
97
97
98

Kindly indicate its recorded Population Normal (%). Item: Cc1sc2c(c1C)C(c1ccc(Cl)cc1)=N[C@@H](CC(=O)NCCCCCCCCNC(=O)COc1cccc3c1C(=O)N(C1CCC(=O)NC1=O)C3=O)c1nnc(C)n1-2 (some centres undefined) 88

====

Tested on: Fibroblast
Experiment: Multiplex assay against human fibroblast
Format: toxicity, cell-based
Settings: 24 h, 1 µM, compound concentration 1 uM, replicate 2
Consider the following molecules; for each one, report its Population Hoechst High Intensity Objects (%).
Numbers only, in %.

# example entries with known answers
Cc1sc2c(c1C)C(c1ccc(Cl)cc1)=N[C@@H](CC(=O)NCCCCCCCCNC(=O)COc1cccc3c1C(=O)N(C1CCC(=O)NC1=O)C3=O)c1nnc(C)n1-2 (stereo partly drawn): 3
COc1cccc2c1c(NS(=O)(=O)c1ccc(Cl)s1)nn2Cc1cccc(CNC(=O)C(C)(C)O)c1: 1
CCCCC(=O)N(Cc1ccc(-c2ccccc2-c2nnn[nH]2)cc1)[C@H](C(=O)O)C(C)C: 2
CC(C)c1noc(N2CCC(COc3ccc(-c4ccc(S(C)(=O)=O)cc4)nc3)CC2)n1: 7
CC[C@@H](C)Nc1nc(C)nc2c(-c3ccc(OC)nc3C)c(C)nn12: 3

For each of the items listed, what is its Population Hoechst High Intensity Objects (%)?
1. CC(=O)Nc1cccc2c1c(Sc1ccc(Cl)cc1)c(C)n2CC(=O)O
2. Cc1onc(-c2ccccc2Cl)c1C(=O)N(C)c1ccc(Cl)cc1
3. Cl.NCCc1ccc(O)c(O)c1 [DOPAMINE HYDROCHLORIDE]
4. O=C(NCCN1CCC(n2c(=O)[nH]c3cc(Cl)ccc32)CC1)c1ccc(F)cc1 [HALOPEMIDE]

[3, 12, 2, 10]
